Measured values drawn from patent US20160333419A1 for this set.

System: SW982
Assay: OncoPanel cytotoxicity assay
Type: cell-based
Settings: Homo sapiens, 72 hour incubation
ASSAY ENDPOINT: IC50 (nM)

> print(dat)
                              sample.smiles  assay.endpoint  meas.value
1  CC[C@@H]1CNC2(CC2)CN1C(=O)[C@@H]1C[C@@H](F)CN1C(=O)C1=C(C(C)C)N2C(=N[C@@](C)(c3ccc(Cl)nc3)[C@H]2c2ccc(Cl)c(F)c2)S1            IC50         232
2  CC1(C)CCC2(CC1)N[C@@H](C(=O)N[C@@H]1CC[C@@H](C(N)=O)OC1)[C@H](c1ccnc(Cl)c1F)[C@]21C(=O)Nc2cc(Cl)ccc21            IC50        20.9
